Reported half-life at 6 μg/mL values are given for each entry in this list.
Experiment: Stability against metabolizing enzymes in the liver (hepatic microsome)
Conditions used: female, Sprague-Dawley (SD), rat, liver microsomes, pH 7.4, Half-life, time until remaining amount reached 50%, 37° C.
Measured quantity: half-life at 6 μg/mL

[[record]]
molecule = "CC12CO[C@@H](c3cccc4ccccc34)O[C@H]1CC[C@@]1(C)C2C[C@H](OC(=O)c2ccc(C#N)cc2)[C@@]2(C)Oc3cc(-c4cccnc4)oc(=O)c3[C@H](O)C12 (stereo partly shown)"
measured_quantity = "half-life at 6 μg/mL"
obs_value = "≥ 9 h"

[[record]]
molecule = "CC(C)C(=O)OCC1(C)C2C[C@H](OC(=O)c3ccc(C#N)cc3)[C@@]3(C)Oc4cc(-c5cccnc5)oc(=O)c4[C@H](O)C3[C@@]2(C)CC[C@@H]1OC(=O)C(C)C (stereo partly shown) [PRD056, reference compound]"
measured_quantity = "half-life at 6 μg/mL"
obs_value = "≥ 9 h"

[[record]]
molecule = "CC(C)C(=O)OCC1(C)C2C[C@H](OC(=O)c3ccc([N+](=O)[O-])cc3)[C@@]3(C)Oc4cc(-c5cccnc5)oc(=O)c4[C@H](O)C3[C@@]2(C)CC[C@@H]1OC(=O)C(C)C (stereo partly shown)"
measured_quantity = "half-life at 6 μg/mL"
obs_value = "≥ 9 h"

[[record]]
molecule = "CC(=O)OCC1(C)C2C[C@H](OC(=O)c3ccc(C)cc3)[C@@]3(C)Oc4cc(-c5cccnc5)oc(=O)c4[C@H](O)C3[C@@]2(C)CC[C@@H]1OC(C)=O (stereo partly shown) [PRD009, reference compound]"
measured_quantity = "half-life at 6 μg/mL"
obs_value = "1 h"

[[record]]
molecule = "CC12CO[C@@H](c3ccccc3F)O[C@H]1CC[C@@]1(C)C2C[C@H](OC(=O)c2ccc(C#N)cc2)[C@@]2(C)Oc3cc(-c4cccnc4)oc(=O)c3[C@H](O)C12 (stereo partly shown)"
measured_quantity = "half-life at 6 μg/mL"
obs_value = "≥ 9 h"

[[record]]
molecule = "Cc1cccc(C2OCC3(C)C(CCC4(C)C3CC(OC(=O)c3ccc(C#N)cc3)C3(C)Oc5cc(-c6cccnc6)oc(=O)c5C(O)C43)O2)c1 (stereo not shown)"
measured_quantity = "half-life at 6 μg/mL"
obs_value = "≥ 9 h"

[[record]]
molecule = "CC(=O)OCC1(C)C2C[C@H](OC(=O)C3CCCCC3)[C@@]3(C)Oc4cc(-c5cccnc5)oc(=O)c4[C@H](O)C3[C@@]2(C)CC[C@@H]1OC(C)=O (stereo partly shown) [PRD021, reference compound]"
measured_quantity = "half-life at 6 μg/mL"
obs_value = "1 h"

[[record]]
molecule = "CC12CO[C@@H](c3ccccc3)O[C@H]1CC[C@@]1(C)C2C[C@H](OC(=O)C2CCCCC2)[C@@]2(C)Oc3cc(-c4cccnc4)oc(=O)c3[C@H](O)C12 (stereo partly shown)"
measured_quantity = "half-life at 6 μg/mL"
obs_value = "> 9 h"

[[record]]
molecule = "Cc1ccc([C@@H]2OCC3(C)C4C[C@H](OC(=O)c5ccc(C#N)cc5)[C@@]5(C)Oc6cc(-c7cccnc7)oc(=O)c6[C@H](O)C5[C@@]4(C)CC[C@@H]3O2)cc1 (stereo partly shown)"
measured_quantity = "half-life at 6 μg/mL"
obs_value = "≥ 9 h"

[[record]]
molecule = "Cc1ccc([C@@H]2OCC3(C)C4C[C@H](OC(=O)c5ccc(F)cc5)[C@@]5(C)Oc6cc(-c7cccnc7)oc(=O)c6[C@H](O)C5[C@@]4(C)CC[C@@H]3O2)cc1 (stereo partly shown)"
measured_quantity = "half-life at 6 μg/mL"
obs_value = "≥ 9 h"

